# RUN DESCRIPTION: gradient 5% acetonitrile 3 min, to 50% in 2 min, to 85% in 15 min, held 3 min, 100 µL/min
# MEASUREMENT PARAMETERS: column: Zorbax Extend-C18 2.1 x 50 mm; eluents: water / acetonitrile, 0.1% formic acid
Output Condition met for records whose RP-LC retention time is lower than 900 s, Condition not met for records at or above 900 s.

{"MOLECULE": "O=C(c1cn2c(n1)COCC2)N1CCN(c2cccc(Cl)c2)CC1", "LABEL CLASS": "Condition met"}
{"MOLECULE": "COc1cc(C2=NN(C(C)=O)C(c3cccnc3)O2)cc(OC)c1OC (stereo unspecified)", "LABEL CLASS": "Condition met"}
{"MOLECULE": "COc1ccc(C(=O)Nc2nc(-c3ccc4c(c3)N(C)C(=O)C(C)O4)cs2)cc1OC (stereo unspecified)", "LABEL CLASS": "Condition not met"}
{"MOLECULE": "Cc1nnc2ccc(S(=O)(=O)Nc3cccc(Cl)c3)cn12", "LABEL CLASS": "Condition met"}
{"MOLECULE": "COc1cc(NS(=O)(=O)c2c(C)sc(C)c2-c2cc(C(F)(F)F)on2)cc(OC)c1", "LABEL CLASS": "Condition not met"}
{"MOLECULE": "COc1cc(NC(=O)CSc2ccc(N3CCOCC3)nn2)cc(OC)c1", "LABEL CLASS": "Condition met"}
{"MOLECULE": "COc1ccccc1CNS(=O)(=O)c1cc(-c2cc(C(F)(F)F)on2)sc1C", "LABEL CLASS": "Condition not met"}
{"MOLECULE": "COc1cccc(CNC(=O)c2c(C(F)(F)F)nn(C)c2C)c1", "LABEL CLASS": "Condition met"}
{"MOLECULE": "Cc1nnc2n1CCC(N(C)S(=O)(=O)c1ccccc1F)CC2 (stereo unspecified)", "LABEL CLASS": "Condition met"}
{"MOLECULE": "Cc1ccc(OCC(=O)Nc2cc3c(cc2N(C)C)n(C)c(=O)c(=O)n3C)c(C)c1", "LABEL CLASS": "Condition not met"}
{"MOLECULE": "CC1Oc2ccccc2N(CC(=O)NC2CC2)C1=O (stereo unspecified)", "LABEL CLASS": "Condition met"}
{"MOLECULE": "COc1ccccc1N1CCN(CCNC(=O)C(=O)NC2CCCCC2)CC1", "LABEL CLASS": "Condition met"}
{"MOLECULE": "CCn1c(N2CCCC(C(=O)NCc3cccc(OC)c3)C2)cc(=O)n(C)c1=O (stereo unspecified)", "LABEL CLASS": "Condition met"}
{"MOLECULE": "COc1ccc(CCNC(=O)CSc2nnc(NC(=O)CC(C)C)s2)cc1OC", "LABEL CLASS": "Condition met"}
{"MOLECULE": "Cc1ccc(CNC(=O)c2cc(C(C)C)n3nccc3n2)cc1", "LABEL CLASS": "Condition not met"}
{"MOLECULE": "COc1ccccc1-c1nc2nccc(-c3cccnc3)n2n1", "LABEL CLASS": "Condition met"}

* * *

# RUN DESCRIPTION: gradient 5% acetonitrile 3 min, to 50% in 2 min, to 85% in 15 min, held 3 min, 100 µL/min
# MEASUREMENT PARAMETERS: column: Zorbax Extend-C18 2.1 x 50 mm; eluents: water / acetonitrile, 0.1% formic acid
Threshold 800 s. RP-LC retention time below it: Satisfied. RP-LC retention time at it or above: Not satisfied.

{"SMILES NOTATION": "CN(C)S(=O)(=O)c1ccc(-c2nnc(C(=O)NCCC3=CCCCC3)o2)cc1", "LABEL CLASS": "Not satisfied"}
{"SMILES NOTATION": "N#Cc1ccsc1NC(=O)c1cccc(Cl)c1", "LABEL CLASS": "Not satisfied"}
{"SMILES NOTATION": "O=C(c1ccc(-c2ccc3c(c2)CCN3S(=O)(=O)c2cccc(F)c2)cc1)N1CCOCC1", "LABEL CLASS": "Not satisfied"}
{"SMILES NOTATION": "CCOc1ccc(NC(=O)C2CCN(S(=O)(=O)c3cn(C(C)C)cn3)CC2)cc1", "LABEL CLASS": "Satisfied"}
